These data points were gathered from PubChem BioAssay AID1159580.

METHOD DESCRIPTION: chemical genetic growth profiling, strain panel (AID 1159580);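 note: tested at 20 µM; growth read once vehicle control cultures reached saturation at 30 °C; 1 = growth at the plate median or of vehicle wells; lower values mean less growth of the strain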
CONDITION DETAILS: S. cerevisiae deletion strains, growth OD, locus YEL061C, strain CIN8 (second series), active compounds read low
Among all 5,500 compounds or so, about 2,000 (36%) were called active. Roughly 18% stayed inconclusive and do not appear here. The list shows a part of the results.
For each record, write down the corresponding normalized growth.

Below: 6 compounds and their reported normalized growth.
COMPOUND	READOUT TYPE	VALUE REPORTED
O=C1c2c(O)ccc(O)c2C(=O)c2c(NCCNCCO)ccc(NCCNCCO)c21	normalized growth	0.896 (active)
Cn1nnnc1SCC1=C(C(=O)O)N2C(=O)C(NC(=O)C(O)c3ccccc3)C2SC1 (configuration not stated)	normalized growth	0.978 (inactive)
CN1CCN2c3ccccc3Cc3ccccc3C2C1 (configuration not stated)	normalized growth	1.01 (inactive)
ClC(Cl)=C(c1ccc(Cl)cc1)c1ccc(Cl)cc1	normalized growth	0.996 (inactive)
O=c1cc(-c2cccc(O)c2)oc2ccc(O)cc12	normalized growth	0.951 (inactive)
COC(=O)C1=C(C)NC(C)=C(C(=O)OC)C1c1ccccc1[N+](=O)[O-]	normalized growth	0.966 (inactive)

Attention now turns to another entry.
Lookup: Request the reported normalized growth associated with O=c1cc(-c2ccc(O)c(O)c2)oc2ccccc12
Found: 0.989 (inactive)

---

METHOD DESCRIPTION: chemical genetic growth profiling, strain panel (AID 1159580);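 note: tested at 20 µM; growth read once vehicle control cultures reached saturation at 30 °C; 1 = growth at the plate median or of vehicle wells; lower values mean less growth of the strain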
CONDITION DETAILS: S. cerevisiae deletion strains, growth OD, locus YLL001W, strain dnm1, active compounds read low
Screen size: about 5,500 compounds; about 2,000 (36%) were called active. Not shown: some 18% with an inconclusive outcome. This is one part of the list.
READOUT TYPE: normalized growth
Numbers only.

Below: 2 molecules and their reported normalized growth.
MOLECULE	normalized growth
CC(=O)O[C@H]1C[C@@H](O)C(C)(C)C2C[C@@H](OC(C)=O)[C@]3(C)C(CC[C@@]4(C)[C@H](c5ccoc5)OC(=O)C5OC543)[C@]21C (stereo partly drawn)	0.998
C[N+]1(CCCCC[N+]2(C)CCCC2)CCCC1	1

Attention now turns to another entry.
Lookup: Request the reported normalized growth associated with CC1(C)O[C@@H]2CC3C4C[C@H](F)C5=CC(=O)C=C[C@]5(C)[C@@]4(F)[C@@H](O)C[C@]3(C)[C@]2(C(=O)CO)O1 (stereo partly drawn)
Found: 1.01

---

METHOD DESCRIPTION: chemical genetic growth profiling, strain panel (AID 1159580);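 note: tested at 20 µM; growth read once vehicle control cultures reached saturation at 30 °C; 1 = growth at the plate median or of vehicle wells; lower values mean less growth of the strain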
CONDITION DETAILS: S. cerevisiae deletion strains, growth OD, locus YDL074C, strain BRE1, active compounds read low
Among all 5,500 compounds or so, about 2,000 (36%) were called active. About 18% were inconclusive and are not listed. Some of the results follow.
READOUT TYPE: normalized growth
Give bare numbers.

Below: 2 molecules and their reported normalized growth.
SMILES DATA	VALUE REPORTED
Cc1coc2ccccc2c1=O	1
O=c1oc2ccccc2c(O)c1Cc1c(O)c2ccccc2oc1=O	1.02

Lookup: Request the reported normalized growth associated with COc1cc2cc[n+]3cc4c(OC)c(OC)ccc4cc3c2cc1OC
Found: 0.977

---

For each record, write down the corresponding normalized growth.
METHOD DESCRIPTION: chemical genetic growth profiling, strain panel (AID 1159580);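 note: tested at 20 µM; growth read once vehicle control cultures reached saturation at 30 °C; 1 = growth at the plate median or of vehicle wells; lower values mean less growth of the strain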
CONDITION DETAILS: S. cerevisiae deletion strains, growth OD, locus YNR049C, strain mso1, active compounds read low
Out of some 5,500 compounds screened, about 2,000 (36%) were called active. Another 18% or so got no clear call; they are omitted. The list shows a part of the results.
Answers are plain numbers.

Below: 2 compounds and their reported normalized growth.
COMPOUND	normalized growth
NS(=O)(=O)c1cc2c(cc1C(F)(F)F)NCNS2(=O)=O	0.996
CC(=O)CC(c1ccccc1)c1c(O)c2ccccc2oc1=O (centres undefined)	0.995

Look up normalized growth for the entries below, preserving their order.
1. CCN1CCN(c2cc3c(cc2F)c(=O)c(C(=O)O)cn3C2CC2)CC1
2. COc1cccc2c1cc([N+](=O)[O-])c1c(C(=O)O)cc3c(c12)OCO3
3. COc1ccc2cc3[n+](cc2c1OC)CCc1cc2c(cc1-3)OCO2
4. COc1cc([C@@H]2c3cc4c(cc3[C@H](OC(C)=O)[C@H]3COC(=O)[C@H]23)OCO4)cc(OC)c1OC
5. CC1(C)O[C@@H]2CC3C4C[C@H](F)C5=CC(=O)C=C[C@]5(C)[C@@]4(F)[C@@H](O)C[C@]3(C)[C@]2(C(=O)CO)O1 (some centres undefined)
6. CNCCC=C1c2ccccc2CCc2ccccc21

Found:
1. 1.01
2. 1.02
3. 0.998
4. 1
5. 1
6. 0.98
